Please provide measured IC50 for the entries that follow.
Molecular target: BRG-1 (Homo sapiens, UniProt P51532)
Sequence (P51532 whole entry): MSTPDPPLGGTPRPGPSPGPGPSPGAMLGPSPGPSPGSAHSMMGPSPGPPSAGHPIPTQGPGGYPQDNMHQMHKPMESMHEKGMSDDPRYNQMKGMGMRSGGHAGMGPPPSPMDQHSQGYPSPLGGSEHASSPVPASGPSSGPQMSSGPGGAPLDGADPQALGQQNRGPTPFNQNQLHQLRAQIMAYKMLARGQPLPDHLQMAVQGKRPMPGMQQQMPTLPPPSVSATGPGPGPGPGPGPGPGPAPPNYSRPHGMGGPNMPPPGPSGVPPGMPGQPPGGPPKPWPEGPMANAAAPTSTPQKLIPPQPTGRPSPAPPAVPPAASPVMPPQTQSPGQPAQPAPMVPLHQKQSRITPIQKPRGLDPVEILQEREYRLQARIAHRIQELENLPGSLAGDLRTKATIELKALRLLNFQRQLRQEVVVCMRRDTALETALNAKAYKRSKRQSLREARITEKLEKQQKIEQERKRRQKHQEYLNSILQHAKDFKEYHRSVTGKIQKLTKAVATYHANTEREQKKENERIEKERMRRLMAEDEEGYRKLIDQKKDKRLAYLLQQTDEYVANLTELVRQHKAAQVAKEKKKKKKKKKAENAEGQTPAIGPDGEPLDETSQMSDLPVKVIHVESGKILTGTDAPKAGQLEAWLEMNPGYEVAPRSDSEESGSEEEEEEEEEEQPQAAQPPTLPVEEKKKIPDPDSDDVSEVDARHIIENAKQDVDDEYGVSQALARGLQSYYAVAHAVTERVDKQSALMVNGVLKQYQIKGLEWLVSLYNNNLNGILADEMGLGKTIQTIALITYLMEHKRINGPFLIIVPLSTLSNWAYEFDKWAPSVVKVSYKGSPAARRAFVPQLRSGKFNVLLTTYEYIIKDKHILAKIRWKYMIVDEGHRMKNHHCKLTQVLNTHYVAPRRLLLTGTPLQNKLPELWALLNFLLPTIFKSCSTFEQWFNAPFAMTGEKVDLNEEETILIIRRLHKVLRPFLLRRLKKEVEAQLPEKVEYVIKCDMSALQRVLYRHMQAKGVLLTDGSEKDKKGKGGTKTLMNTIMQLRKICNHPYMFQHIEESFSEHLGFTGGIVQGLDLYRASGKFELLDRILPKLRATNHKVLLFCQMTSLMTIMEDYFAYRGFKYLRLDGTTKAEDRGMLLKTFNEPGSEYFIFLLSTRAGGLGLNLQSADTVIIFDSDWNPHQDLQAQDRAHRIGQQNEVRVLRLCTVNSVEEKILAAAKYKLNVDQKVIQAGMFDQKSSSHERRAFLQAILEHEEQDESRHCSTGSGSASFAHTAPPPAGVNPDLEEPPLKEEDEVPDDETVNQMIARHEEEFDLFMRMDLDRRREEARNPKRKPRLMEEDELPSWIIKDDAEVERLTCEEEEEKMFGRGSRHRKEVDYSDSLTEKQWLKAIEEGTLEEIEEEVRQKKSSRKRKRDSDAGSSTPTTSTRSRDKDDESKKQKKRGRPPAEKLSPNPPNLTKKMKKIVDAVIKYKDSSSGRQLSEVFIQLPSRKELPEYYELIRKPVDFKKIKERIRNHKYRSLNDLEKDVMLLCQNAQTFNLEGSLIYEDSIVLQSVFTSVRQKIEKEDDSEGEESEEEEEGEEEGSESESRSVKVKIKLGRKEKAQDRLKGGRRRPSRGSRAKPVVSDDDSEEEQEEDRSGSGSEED
Experiment: ATPase catalytic activity assay of BRG-1 (ADP-Glo)
Assay type: biochemical
Conditions: ATPase catalytic activity, ADP-Glo; read-out: BRG1 IC50 (μM)*

Example cases with answers are listed next.
| structure string | measured result |
| --- | --- |
| O=C(CNC(=O)c1ccc2c(c1)[C@](F)(C(F)F)COC2)Nc1nc(-c2cc(F)cc(N3CCC3)c2)cs1 | < 0.1 µM |
| C[C@@H]1CN(c2cccc(-c3csc(NC(=O)CNC(=O)c4ccc5c(c4)[C@](C)(CO)CCO5)n3)c2)C[C@H](C)O1 | > 5 µM |
| C[C@@H]1CN(c2cccc(-c3csc(NC(=O)CNC(=O)c4cccc([C@]5(F)C[C@H](O)C5)c4)n3)c2)C[C@H](C)O1 | 0.1 to 1 µM |

Required: IC50, one value per compound below.
1. C[C@@H]1CN(c2cccc(-c3csc(NC(=O)CNC(=O)c4cccc5c4OCC[C@@]5(C)C#N)n3)c2)C[C@H](C)O1
2. Cc1cc(C(=O)NCC(=O)Nc2nc(-c3cccc(-c4ccncc4)c3)cs2)cc(C(C)(C)CN)c1
3. C[C@@H]1CN(c2cccc(-c3csc(NC(=O)CNC(=O)c4ccc5c(c4)[C@@](F)(C(F)F)CCO5)n3)c2)C[C@H](C)O1

Solution:
> 5 µM
> 5 µM
0.1 to 1 µM

# credit: patent US12685735B2
